// data source = paper PMC6691816

Target: HER2 (Homo sapiens, UniProt P04626)
Construct: purchased ProQinase GmbH
Sequence (P04626 23-1255): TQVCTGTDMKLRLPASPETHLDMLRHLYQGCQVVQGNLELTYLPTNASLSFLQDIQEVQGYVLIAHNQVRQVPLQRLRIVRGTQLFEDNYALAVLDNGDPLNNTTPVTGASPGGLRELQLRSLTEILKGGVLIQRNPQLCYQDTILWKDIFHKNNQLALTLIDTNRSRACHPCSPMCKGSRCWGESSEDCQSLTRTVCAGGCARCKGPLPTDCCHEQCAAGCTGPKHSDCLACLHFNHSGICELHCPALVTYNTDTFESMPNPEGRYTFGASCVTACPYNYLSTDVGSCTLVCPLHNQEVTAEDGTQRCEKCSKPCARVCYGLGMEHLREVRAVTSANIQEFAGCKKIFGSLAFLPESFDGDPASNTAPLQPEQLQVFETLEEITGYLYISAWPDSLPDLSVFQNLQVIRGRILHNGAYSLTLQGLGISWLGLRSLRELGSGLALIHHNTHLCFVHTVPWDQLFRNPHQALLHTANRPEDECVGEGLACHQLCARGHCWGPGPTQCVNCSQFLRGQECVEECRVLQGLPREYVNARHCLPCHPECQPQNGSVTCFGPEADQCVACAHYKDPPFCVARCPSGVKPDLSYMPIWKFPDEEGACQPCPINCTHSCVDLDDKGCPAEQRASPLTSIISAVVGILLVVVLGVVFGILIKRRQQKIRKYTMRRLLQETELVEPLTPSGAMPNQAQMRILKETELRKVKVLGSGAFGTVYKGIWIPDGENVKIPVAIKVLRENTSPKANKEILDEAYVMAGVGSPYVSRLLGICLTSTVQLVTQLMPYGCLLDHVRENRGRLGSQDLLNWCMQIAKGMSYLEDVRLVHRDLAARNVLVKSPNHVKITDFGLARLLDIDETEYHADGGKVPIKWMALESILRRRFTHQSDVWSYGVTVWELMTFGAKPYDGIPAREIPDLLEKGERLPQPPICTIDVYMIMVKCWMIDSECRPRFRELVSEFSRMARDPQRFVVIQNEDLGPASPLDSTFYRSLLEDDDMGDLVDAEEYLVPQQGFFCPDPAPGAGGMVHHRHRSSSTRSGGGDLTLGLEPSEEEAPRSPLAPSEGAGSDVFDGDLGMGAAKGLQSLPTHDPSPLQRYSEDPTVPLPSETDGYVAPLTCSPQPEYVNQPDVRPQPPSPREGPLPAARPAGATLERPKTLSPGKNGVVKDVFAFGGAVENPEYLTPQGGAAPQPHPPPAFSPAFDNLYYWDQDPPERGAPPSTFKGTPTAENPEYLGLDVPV
Assay: HER2 protein kinase assay (33PanQinase), single concentration
Format: biochemical
Conditions: 0.5 μM (5 × 10^−7 M), singlicate, % of control activity; read-out: Residual activity under 0.5 μM drug concentration (%) HER2
measured-endpoint: remaining activity at 0.5 µM
Remember to follow the number with its unit.

Readout remaining activity at 0.5 µM for C=CC(=O)N1CC2(CCN(C)CC2)c2cc(OC)c(Nc3ncc(C#N)c(Nc4ccc(OCc5ccccn5)c(Cl)c4)n3)cc21 [Compound A2] , test system HER2 (Homo sapiens, UniProt P04626), was 5%

Readout remaining activity at 0.5 µM for CCOc1cc2ncc(C#N)c(Nc3ccc(OCc4ccccn4)c(Cl)c3)c2cc1NC(=O)/C=C/CN(C)C [Neratinib, reference compound] , test system HER2 (Homo sapiens, UniProt P04626), was 6%

Readout remaining activity at 0.5 µM for COc1cc2c(cc1Nc1ncc(C#N)c(Nc3ccc(OCc4ccccn4)cc3)n1)N(C(=O)/C=C/CN(C)C)CC1(CC1)O2 [Compound C1] , test system HER2 (Homo sapiens, UniProt P04626), was 100%

Readout remaining activity at 0.5 µM for COc1cc2c(cc1Nc1ncc(C#N)c(Nc3ccc(OCc4ccccc4)c(Cl)c3)n1)N(C(=O)/C=C/CN(C)C)CC21CC1 [Compound B3] , test system HER2 (Homo sapiens, UniProt P04626), was 102%

---

Biological target: EGF-R L861Q (Homo sapiens, UniProt P00533, L861Q)
Assay: Radiometric protein kinase IC50 assay (33PanQinase)
Kindly state IC50 for each of the entries shown.
Response body: numeric value in nM, unit text excluded.

Measured IC50, C=CC(=O)N1CC2(CCN(C)CC2)c2cc(OC)c(Nc3ncc(C#N)c(Nc4ccc(OCc5ccccn5)c(Cl)c4)n3)cc21 [Compound A2] : 81

Measured IC50, C=CC(=O)N1CC2(CCN(C)CC2)c2cc(OC)c(Nc3ncc(C#N)c(Nc4ccc(OCc5ccccn5)cc4)n3)cc21 [Compound A1] : 76

---

Target: EGF-R T790M (Homo sapiens, UniProt P00533, T790M)
Test: Radiometric protein kinase IC50 assay (33PanQinase)
Kindly state IC50 for each of the entries shown.
Response body: numeric value in nM, unit text excluded.

Measured IC50, `C=CC(=O)N1CC2(CCN(C)CC2)c2cc(OC)c(Nc3ncc(C#N)c(Nc4ccc(OCc5ccccn5)cc4)n3)cc21` : 89

Measured IC50, `C=CC(=O)N1CC2(CCN(C)CC2)c2cc(OC)c(Nc3ncc(C#N)c(Nc4ccc(OCc5ccccn5)c(Cl)c4)n3)cc21` : 130

---

Biological target: EGF-R wt (Homo sapiens, UniProt P00533)
Construct: purchased ProQinase GmbH
Sequence (P00533 25-1210): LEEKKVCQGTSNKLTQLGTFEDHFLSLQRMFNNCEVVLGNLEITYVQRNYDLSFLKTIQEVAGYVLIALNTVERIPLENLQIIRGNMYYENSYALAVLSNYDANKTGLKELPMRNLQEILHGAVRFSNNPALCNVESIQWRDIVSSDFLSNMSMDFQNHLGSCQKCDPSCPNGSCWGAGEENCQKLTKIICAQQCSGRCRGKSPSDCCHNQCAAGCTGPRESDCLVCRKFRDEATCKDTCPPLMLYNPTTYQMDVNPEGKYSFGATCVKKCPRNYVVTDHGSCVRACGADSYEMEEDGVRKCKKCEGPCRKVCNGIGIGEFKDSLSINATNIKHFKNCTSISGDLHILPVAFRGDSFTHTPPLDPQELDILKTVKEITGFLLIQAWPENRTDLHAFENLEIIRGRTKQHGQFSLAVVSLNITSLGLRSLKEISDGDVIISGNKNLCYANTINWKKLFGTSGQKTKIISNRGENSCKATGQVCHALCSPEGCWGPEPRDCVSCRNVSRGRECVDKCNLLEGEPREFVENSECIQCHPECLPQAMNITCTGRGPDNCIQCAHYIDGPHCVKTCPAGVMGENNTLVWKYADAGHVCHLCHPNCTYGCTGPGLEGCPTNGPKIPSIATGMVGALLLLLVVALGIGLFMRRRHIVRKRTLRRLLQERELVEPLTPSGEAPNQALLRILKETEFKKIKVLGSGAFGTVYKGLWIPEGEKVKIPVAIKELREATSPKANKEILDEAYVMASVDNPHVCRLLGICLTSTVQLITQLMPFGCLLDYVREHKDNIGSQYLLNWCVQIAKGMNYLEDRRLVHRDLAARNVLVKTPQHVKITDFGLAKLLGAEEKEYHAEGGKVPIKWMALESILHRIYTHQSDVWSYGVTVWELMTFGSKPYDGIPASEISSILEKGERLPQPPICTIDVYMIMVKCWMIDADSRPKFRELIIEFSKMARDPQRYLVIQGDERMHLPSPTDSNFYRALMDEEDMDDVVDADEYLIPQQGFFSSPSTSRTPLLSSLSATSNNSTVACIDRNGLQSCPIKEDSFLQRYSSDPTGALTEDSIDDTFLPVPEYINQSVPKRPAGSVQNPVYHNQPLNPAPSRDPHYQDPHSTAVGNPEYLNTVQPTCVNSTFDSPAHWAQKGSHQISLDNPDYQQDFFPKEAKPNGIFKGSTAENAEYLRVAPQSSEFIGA
Experiment: EGFR-wt protein kinase assay (33PanQinase), single concentration
Assay type: biochemical
Conditions: 0.5 μM (5 × 10^−7 M), singlicate, % of control activity; read-out: Residual activity under 0.5 μM drug concentration (%) EGF-R wt
Kindly state remaining activity at 0.5 µM for each of the entries shown.
Response body: numeric value in %, unit text excluded.

Measured remaining activity at 0.5 µM, `COc1cc2c(cc1Nc1ncc(C#N)c(Nc3ccc(OCc4ccccn4)c(Cl)c3)n1)N(C(=O)/C=C/CN(C)C)CC1(CC1)O2` : 76

Measured remaining activity at 0.5 µM, `COc1cc2c(cc1Nc1ncc(C#N)c(Nc3cnn(Cc4ccccn4)c3)n1)N(C(=O)/C=C/CN(C)C)CC1(CC1)O2` : 85

Measured remaining activity at 0.5 µM, `COc1cc2c(cc1Nc1ncc(C#N)c(Nc3ccc(OCc4ccccn4)c(Cl)c3)n1)N(C(=O)/C=C/CN(C)C)CC21CC1` : 97

Measured remaining activity at 0.5 µM, `C=CC(=O)N1CC2(CC2)c2cc(OC)c(Nc3ncc(C#N)c(Nc4ccc(OCc5ccccn5)cc4)n3)cc21` : 87

Measured remaining activity at 0.5 µM, `C=CC(=O)N1CC2(CCN(C)CC2)c2cc(OC)c(Nc3ncc(C#N)c(Nc4ccc(OCc5ccccn5)c(Cl)c4)n3)cc21` : 6

Measured remaining activity at 0.5 µM, `C=CC(=O)N1CC2(CCN(C)CC2)c2cc(OC)c(Nc3ncc(C#N)c(Nc4ccc(OCc5ccccc5)c(Cl)c4)n3)cc21` : 19

Measured remaining activity at 0.5 µM, `COc1cc2c(cc1Nc1ncc(C#N)c(Nc3ccc(OCc4ccccc4)c(Cl)c3)n1)N(C(=O)/C=C/CN(C)C)CC1(CC1)O2` : 79

Measured remaining activity at 0.5 µM, `COc1cc2c(cc1Nc1ncc(C#N)c(Nc3ccc(OCc4ccccc4)c(Cl)c3)n1)N(C(=O)/C=C/CN(C)C)CC21CC1` : 95

Measured remaining activity at 0.5 µM, `COc1cc2c(cc1Nc1ncc(C#N)c(Nc3ccc(OCc4ccccn4)cc3)n1)N(C(=O)/C=C/CN(C)C)CC1(CC1)O2` : 86

Measured remaining activity at 0.5 µM, `C=CC(=O)N1CC2(CCN(C)CC2)c2cc(OC)c(Nc3ncc(C#N)c(Nc4ccc(OCc5ccccn5)cc4)n3)cc21` : 7

Measured remaining activity at 0.5 µM, `COc1cc2c(cc1Nc1ncc(C#N)c(Nc3ccc(OCc4ccccn4)cc3)n1)N(C(=O)/C=C/CN(C)C)CC21CC1` : 92

Measured remaining activity at 0.5 µM, `C=CC(=O)N1CC2(CC2)c2cc(OC)c(Nc3ncc(C#N)c(Nc4cnn(Cc5ccccn5)c4)n3)cc21` : 89

---

Kindly state remaining activity at 0.5 µM for each of the entries shown.
Target: HER2 (Homo sapiens)
Construct: purchased ProQinase GmbH
Experiment: HER2 protein kinase assay (33PanQinase), single concentration
Type: biochemical
Conditions: 0.5 μM (5 × 10^−7 M), singlicate, % of control activity; read-out: Residual activity under 0.5 μM drug concentration (%) HER2
Response body: numeric value in %, unit text excluded.

Measured remaining activity at 0.5 µM, C=CC(=O)N1CC2(CC2)c2cc(OC)c(Nc3ncc(C#N)c(Nc4cnn(Cc5ccccn5)c4)n3)cc21 [Compound B7] : 135

Measured remaining activity at 0.5 µM, COc1cc2c(cc1Nc1ncc(C#N)c(Nc3ccc(OCc4ccccn4)c(Cl)c3)n1)N(C(=O)/C=C/CN(C)C)CC21CC1 [Compound B2] : 100

Measured remaining activity at 0.5 µM, C=CC(=O)N1CC2(CCN(C)CC2)c2cc(OC)c(Nc3ncc(C#N)c(Nc4ccc(OCc5ccccn5)cc4)n3)cc21 [Compound A1] : 9

Measured remaining activity at 0.5 µM, C=CC(=O)N1CC2(CC2)c2cc(OC)c(Nc3ncc(C#N)c(Nc4ccc(OCc5ccccn5)cc4)n3)cc21 [Compound B4] : 99

---

Target: EGF-R d747-749/A750P (Homo sapiens, UniProt P00533, A750P/DEL747-749)
Sequence (P00533 with tags, fused parts or gaps DEL747-749/A750P limits assumed): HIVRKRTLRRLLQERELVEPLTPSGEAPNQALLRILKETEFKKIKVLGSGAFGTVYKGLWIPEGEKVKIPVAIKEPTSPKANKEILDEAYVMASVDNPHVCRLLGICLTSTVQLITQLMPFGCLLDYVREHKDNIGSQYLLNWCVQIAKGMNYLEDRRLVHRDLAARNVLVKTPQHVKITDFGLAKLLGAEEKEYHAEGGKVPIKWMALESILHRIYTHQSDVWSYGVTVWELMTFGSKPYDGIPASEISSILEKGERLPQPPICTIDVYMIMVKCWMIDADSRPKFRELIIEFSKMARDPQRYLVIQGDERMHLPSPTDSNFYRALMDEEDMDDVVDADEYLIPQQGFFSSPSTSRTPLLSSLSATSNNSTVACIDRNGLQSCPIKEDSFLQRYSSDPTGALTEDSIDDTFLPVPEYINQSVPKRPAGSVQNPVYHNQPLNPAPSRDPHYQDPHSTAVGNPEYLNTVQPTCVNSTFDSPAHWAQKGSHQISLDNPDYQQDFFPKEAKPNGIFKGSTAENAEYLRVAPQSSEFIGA
Experiment: Radiometric protein kinase IC50 assay (33PanQinase)
measured-endpoint: pIC50
Note on pIC50: it is the negative log10 of concentration, concentration in mol/L.

Readout pIC50 for `C=CC(=O)N1CC2(CCN(C)CC2)c2cc(OC)c(Nc3ncc(C#N)c(Nc4ccc(OCc5ccccn5)c(Cl)c4)n3)cc21` , test system EGF-R d747-749/A750P (Homo sapiens, UniProt P00533, A750P/DEL747-749), was 7.27

Readout pIC50 for `C=CC(=O)N1CC2(CCN(C)CC2)c2cc(OC)c(Nc3ncc(C#N)c(Nc4ccc(OCc5ccccn5)cc4)n3)cc21` , test system EGF-R d747-749/A750P (Homo sapiens, UniProt P00533, A750P/DEL747-749), was 7.28

---

Molecular target: EGF-R G719S (Homo sapiens, UniProt P00533, G719S)
Sequence (P00533 25-1210 G719S): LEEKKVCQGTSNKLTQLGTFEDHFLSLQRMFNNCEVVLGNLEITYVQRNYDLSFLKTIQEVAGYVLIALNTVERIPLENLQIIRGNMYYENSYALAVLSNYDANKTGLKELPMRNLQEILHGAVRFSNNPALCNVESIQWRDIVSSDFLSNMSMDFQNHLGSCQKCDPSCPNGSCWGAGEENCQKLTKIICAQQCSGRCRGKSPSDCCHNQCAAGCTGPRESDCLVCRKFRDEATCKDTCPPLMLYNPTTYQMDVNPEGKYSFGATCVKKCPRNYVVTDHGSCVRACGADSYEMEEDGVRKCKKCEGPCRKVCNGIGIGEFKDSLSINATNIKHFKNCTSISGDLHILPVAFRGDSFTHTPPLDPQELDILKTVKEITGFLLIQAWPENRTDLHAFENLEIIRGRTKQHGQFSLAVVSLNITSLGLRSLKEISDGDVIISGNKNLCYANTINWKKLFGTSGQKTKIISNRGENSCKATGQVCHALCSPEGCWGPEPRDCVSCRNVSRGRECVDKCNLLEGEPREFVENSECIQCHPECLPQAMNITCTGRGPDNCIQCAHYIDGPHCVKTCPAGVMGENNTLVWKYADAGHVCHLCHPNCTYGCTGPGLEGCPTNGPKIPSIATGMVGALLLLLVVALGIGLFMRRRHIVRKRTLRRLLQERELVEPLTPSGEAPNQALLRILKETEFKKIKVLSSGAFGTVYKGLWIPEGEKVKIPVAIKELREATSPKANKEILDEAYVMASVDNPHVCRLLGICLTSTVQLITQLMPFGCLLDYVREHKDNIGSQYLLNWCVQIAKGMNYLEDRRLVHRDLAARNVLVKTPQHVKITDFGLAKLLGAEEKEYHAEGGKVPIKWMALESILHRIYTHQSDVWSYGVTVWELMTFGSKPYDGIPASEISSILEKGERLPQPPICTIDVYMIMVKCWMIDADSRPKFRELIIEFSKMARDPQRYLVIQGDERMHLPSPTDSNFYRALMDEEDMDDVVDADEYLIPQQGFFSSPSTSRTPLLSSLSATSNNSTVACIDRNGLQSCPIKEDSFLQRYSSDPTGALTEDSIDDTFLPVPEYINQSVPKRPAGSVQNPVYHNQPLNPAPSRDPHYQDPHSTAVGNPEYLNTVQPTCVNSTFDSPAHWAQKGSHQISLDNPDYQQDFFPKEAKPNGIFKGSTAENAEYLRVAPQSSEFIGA
Assay: Radiometric protein kinase IC50 assay (33PanQinase)
measured-endpoint: IC50 (nM)
Response body: numeric value in nM, unit text excluded.

Measured IC50, `C=CC(=O)N1CC2(CCN(C)CC2)c2cc(OC)c(Nc3ncc(C#N)c(Nc4ccc(OCc5ccccn5)c(Cl)c4)n3)cc21` : 240

Measured IC50, `C=CC(=O)N1CC2(CCN(C)CC2)c2cc(OC)c(Nc3ncc(C#N)c(Nc4ccc(OCc5ccccn5)cc4)n3)cc21` : 200

---

Kindly state IC50 for each of the entries shown.
Biological target: EGF-R T790M/L858R (Homo sapiens, UniProt P00533, L858R/T790M)
Assay: Radiometric protein kinase IC50 assay (33PanQinase)
Assay type: biochemical
Description: The compounds were serially diluted in semi-log steps with 100% DMSO in a 96 well microtiter plate. […] A radiometric protein kinase assay (33PanQinase® Activity Assay) was used for measuring the kinase activity of the 9 protein kinases. […] Incorporation of 33Pi (counting of “cpm”) was determined with a microplate scintillation counter (Microbeta, Wallac). […] Based on each 10 corresponding residual activities, IC50 values were calculated using Prism 5.04 for Windows. […]
Remember to follow the number with its unit.

Measured IC50, `C=CC(=O)N1CC2(CCN(C)CC2)c2cc(OC)c(Nc3ncc(C#N)c(Nc4ccc(OCc5ccccn5)c(Cl)c4)n3)cc21` : 80 nM

Measured IC50, `C=CC(=O)N1CC2(CCN(C)CC2)c2cc(OC)c(Nc3ncc(C#N)c(Nc4ccc(OCc5ccccn5)cc4)n3)cc21` : 90 nM
